All figures here come from paper PMC9120017.

Target: mouse TMEM16A mutant G558P (Mus musculus, UniProt Q8BHY3, G558P)
Construct: expressed in transfected cells; host or cells: HEK293T
Test: Inside-out patch recording of 1PBC block, mutant G558P
Type: cell-based
Conditions: -120 mV; 15 µM Ca2+
Method: HEK293T cells (ATCC CRL-1573) were maintained in Dulbecco’s modified Eagle’s medium (DMEM; Sigma-Aldrich) supplemented with 10 U ml^−1 penicillin, 0.1 mg ml^−1 streptomycin (Sigma-Aldrich), 2 mM L-glutamine (Sigma-Aldrich), and 10% FBS (Sigma-Aldrich) in a humidified atmosphere containing 5% CO2 at 37 °C. […]
measured_endpoint: pIC50
To interpret pIC50, take it as minus log10 of a concentration measured in moles per litre.

// query Given the molecule N#Cc1c(C(F)(F)F)cc(O)n2c1nc1ccccc12 , what is its reported pIC50?
// result 4.60

----------
Molecular target: mouse TMEM16A mutant P595A (Mus musculus, UniProt Q8BHY3, P595A)
Construct: expressed in transfected cells; host or cells: HEK293T
Sequence (Q8BHY3 1-960 P595A): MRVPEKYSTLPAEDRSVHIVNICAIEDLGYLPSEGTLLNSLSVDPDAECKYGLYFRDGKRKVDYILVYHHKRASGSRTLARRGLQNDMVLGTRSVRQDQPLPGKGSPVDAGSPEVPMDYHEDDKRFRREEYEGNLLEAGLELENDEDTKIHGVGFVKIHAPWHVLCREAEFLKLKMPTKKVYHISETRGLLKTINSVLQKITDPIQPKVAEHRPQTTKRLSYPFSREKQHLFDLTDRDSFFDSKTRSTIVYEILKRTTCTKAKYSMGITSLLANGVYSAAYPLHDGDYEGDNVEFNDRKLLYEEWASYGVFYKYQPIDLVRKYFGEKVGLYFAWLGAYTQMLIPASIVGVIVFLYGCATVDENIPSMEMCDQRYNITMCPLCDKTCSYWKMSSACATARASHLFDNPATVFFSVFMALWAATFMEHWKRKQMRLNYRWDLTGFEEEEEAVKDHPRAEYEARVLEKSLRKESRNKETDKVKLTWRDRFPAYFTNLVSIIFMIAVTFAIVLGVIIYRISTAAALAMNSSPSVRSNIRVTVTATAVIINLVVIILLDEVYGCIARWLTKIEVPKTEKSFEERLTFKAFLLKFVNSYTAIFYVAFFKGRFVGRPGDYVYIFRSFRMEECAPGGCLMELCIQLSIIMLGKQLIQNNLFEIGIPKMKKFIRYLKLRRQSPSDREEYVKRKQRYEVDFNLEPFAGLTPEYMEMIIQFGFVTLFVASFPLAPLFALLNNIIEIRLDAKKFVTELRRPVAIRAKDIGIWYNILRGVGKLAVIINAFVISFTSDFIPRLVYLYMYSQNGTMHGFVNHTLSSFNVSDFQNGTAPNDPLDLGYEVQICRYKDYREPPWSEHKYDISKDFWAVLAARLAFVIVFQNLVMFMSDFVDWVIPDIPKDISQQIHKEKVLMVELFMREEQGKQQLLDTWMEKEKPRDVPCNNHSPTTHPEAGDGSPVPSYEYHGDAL
Assay: Inside-out patch recording of 1PBC block, mutant P595A
Format: cell-based
Conditions: 140 mV; 2 µM Ca2+
measured_endpoint: IC50 (nM)
The reply should be a number in nM, with the unit left off.

// query Give IC50 (mouse TMEM16A mutant P595A (Mus musculus, UniProt Q8BHY3, P595A)) of the following molecule: N#Cc1c(C(F)(F)F)cc(O)n2c1nc1ccccc12
// result 1910

----------
target: mouse TMEM16A mutant V599A (Mus musculus, UniProt Q8BHY3, V599A); construct: expressed in transfected cells; host or cells: HEK293T; test: Inside-out patch recording of 1PBC block, mutant V599A; type: cell-based; conditions: -100 mV; 15 µM Ca2+
measured_endpoint: pIC50
Remember the convention: pIC50 equals -log10 of concentration in molar.

// query Fill in the blank: the reported pIC50 of N#Cc1c(C(F)(F)F)cc(O)n2c1nc1ccccc12 [1PBC] is ____.
// result 3.96

----------
Target: mouse TMEM16A mutant G558P (Mus musculus, UniProt Q8BHY3, G558P)
Construct: expressed in transfected cells; host or cells: HEK293T
Sequence (Q8BHY3 1-960 G558P): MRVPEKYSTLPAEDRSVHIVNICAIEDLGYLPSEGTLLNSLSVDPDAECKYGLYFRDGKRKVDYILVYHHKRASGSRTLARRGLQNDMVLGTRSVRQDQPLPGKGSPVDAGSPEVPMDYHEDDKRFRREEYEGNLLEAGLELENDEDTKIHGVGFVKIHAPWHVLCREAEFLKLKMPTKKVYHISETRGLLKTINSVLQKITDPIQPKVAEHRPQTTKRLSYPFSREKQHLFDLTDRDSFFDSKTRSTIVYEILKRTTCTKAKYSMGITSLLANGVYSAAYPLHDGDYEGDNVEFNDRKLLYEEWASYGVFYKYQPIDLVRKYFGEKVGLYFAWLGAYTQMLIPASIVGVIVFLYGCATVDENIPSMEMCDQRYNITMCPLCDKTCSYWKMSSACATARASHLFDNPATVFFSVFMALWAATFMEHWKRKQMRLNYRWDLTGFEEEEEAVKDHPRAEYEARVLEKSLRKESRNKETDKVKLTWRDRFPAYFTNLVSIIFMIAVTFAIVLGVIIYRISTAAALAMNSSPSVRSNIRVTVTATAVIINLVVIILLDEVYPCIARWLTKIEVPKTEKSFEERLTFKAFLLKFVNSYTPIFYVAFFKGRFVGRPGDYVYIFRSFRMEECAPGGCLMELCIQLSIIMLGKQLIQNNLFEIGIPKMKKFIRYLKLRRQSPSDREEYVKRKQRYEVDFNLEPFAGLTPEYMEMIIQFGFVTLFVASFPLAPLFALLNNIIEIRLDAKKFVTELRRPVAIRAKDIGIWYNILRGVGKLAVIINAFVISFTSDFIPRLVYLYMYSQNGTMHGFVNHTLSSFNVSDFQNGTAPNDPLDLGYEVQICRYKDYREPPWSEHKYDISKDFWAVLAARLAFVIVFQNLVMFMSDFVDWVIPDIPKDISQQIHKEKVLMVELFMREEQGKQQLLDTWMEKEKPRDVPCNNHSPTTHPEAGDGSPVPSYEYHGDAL
Assay: Inside-out patch recording of 1PBC block, mutant G558P
Type: cell-based
Conditions: -100 mV; 15 µM Ca2+
measured_endpoint: IC50

// query Endpoint output: IC50 of N#Cc1c(C(F)(F)F)cc(O)n2c1nc1ccccc12 [1PBC] . Value?
// result 21.1 µM

----------
Target: mouse TMEM16A mutant Y598A (Mus musculus, UniProt Q8BHY3, Y598A)
Construct: expressed in transfected cells; host or cells: HEK293T
Sequence (Q8BHY3 1-960 Y598A): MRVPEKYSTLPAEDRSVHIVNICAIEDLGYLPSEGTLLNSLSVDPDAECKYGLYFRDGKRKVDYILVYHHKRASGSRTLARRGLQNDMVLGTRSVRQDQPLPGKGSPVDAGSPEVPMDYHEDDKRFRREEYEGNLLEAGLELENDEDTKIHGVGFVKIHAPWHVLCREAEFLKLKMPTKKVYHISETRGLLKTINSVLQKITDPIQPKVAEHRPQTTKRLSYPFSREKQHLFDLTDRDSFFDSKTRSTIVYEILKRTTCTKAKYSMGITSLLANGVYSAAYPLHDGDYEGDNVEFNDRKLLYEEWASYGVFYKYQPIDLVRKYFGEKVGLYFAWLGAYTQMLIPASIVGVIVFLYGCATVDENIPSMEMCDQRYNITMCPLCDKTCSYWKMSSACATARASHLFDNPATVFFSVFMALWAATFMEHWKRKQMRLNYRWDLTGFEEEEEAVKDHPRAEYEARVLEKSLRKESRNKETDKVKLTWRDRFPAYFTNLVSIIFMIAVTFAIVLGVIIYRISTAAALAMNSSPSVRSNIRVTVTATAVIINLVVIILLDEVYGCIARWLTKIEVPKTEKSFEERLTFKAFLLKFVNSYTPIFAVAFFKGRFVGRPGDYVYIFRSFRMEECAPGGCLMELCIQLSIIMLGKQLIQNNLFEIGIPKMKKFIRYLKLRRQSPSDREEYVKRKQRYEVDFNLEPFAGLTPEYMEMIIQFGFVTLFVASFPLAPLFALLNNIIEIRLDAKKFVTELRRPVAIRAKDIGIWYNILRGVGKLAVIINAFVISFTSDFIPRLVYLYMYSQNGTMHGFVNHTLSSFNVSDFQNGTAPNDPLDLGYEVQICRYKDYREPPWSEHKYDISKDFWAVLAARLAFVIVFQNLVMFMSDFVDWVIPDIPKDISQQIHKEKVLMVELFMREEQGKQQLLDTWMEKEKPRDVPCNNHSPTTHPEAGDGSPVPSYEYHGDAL
Experiment: Inside-out patch recording of 1PBC block, mutant Y598A
Type: cell-based
Details: Y598A; V 60 mV
measured_endpoint: IC50 (µM)
All answers are understood in µM, so give the number only.

// query Please tell me: IC50 of N#Cc1c(C(F)(F)F)cc(O)n2c1nc1ccccc12 , system mouse TMEM16A mutant Y598A (Mus musculus, UniProt Q8BHY3, Y598A)?
// result 3.16
